target: T1, Human CD3 on Human CD3+ Jurkat cells (human, UniProt P07766 23-207); assay: cell binding hCD3, fold over background
T1 construct: whole, on cells; CD3 complex on cells; also called hCD3
T1 sequence (P07766 23-207): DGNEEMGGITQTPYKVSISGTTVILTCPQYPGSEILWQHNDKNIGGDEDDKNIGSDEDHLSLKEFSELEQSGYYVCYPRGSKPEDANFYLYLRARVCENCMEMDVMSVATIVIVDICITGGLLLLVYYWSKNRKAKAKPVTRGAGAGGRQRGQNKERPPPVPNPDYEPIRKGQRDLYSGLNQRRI
Each entry below carries its reported Cell Binding hCD3 (FOB).
value_kind: Cell Binding hCD3 (FOB)

[[record]]
binder = "ADI-46370 (antibody, V domains shown, also called Ab34) VH: QVQLVQSGAEVKKPGASVKVSCKASGFNIKDYYMHWVRQAPGQRLEWIGWIDLENANTVYDHKFQGRVTITRDTSASTAYMELSSLRSEDTAVYYCARDAYGRYFYDVWGQGTLVTVSS VL: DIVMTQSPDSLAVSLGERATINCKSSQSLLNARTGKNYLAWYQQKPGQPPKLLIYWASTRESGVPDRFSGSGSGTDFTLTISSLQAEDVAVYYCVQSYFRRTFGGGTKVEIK"
value_kind = "Cell Binding hCD3 (FOB)"
observed = 40

[[record]]
binder = "ADI-46356 (antibody, V domains shown) VH: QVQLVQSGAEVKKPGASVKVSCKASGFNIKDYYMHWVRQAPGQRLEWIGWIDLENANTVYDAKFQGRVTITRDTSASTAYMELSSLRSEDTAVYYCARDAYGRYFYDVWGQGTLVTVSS VL: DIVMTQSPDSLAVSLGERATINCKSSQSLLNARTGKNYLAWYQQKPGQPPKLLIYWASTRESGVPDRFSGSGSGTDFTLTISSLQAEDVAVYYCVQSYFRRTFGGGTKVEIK"
value_kind = "Cell Binding hCD3 (FOB)"
observed = 39

[[record]]
binder = "ADI-46361 (antibody, V domains shown, also called Ab45) VH: QVQLVQSGAEVKKPGASVKVSCKASGFNNKDYYMHWVRQAPGQRLEWIGWIDLENANTVYDAKFQGRVTITRDTSASTAYMELSSLRSEDTAVYYCARDAYGRYFYDVWGQGTLVTVSS VL: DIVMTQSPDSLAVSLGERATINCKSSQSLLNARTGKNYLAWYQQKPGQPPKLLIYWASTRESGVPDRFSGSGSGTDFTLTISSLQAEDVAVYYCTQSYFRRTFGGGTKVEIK"
value_kind = "Cell Binding hCD3 (FOB)"
observed = 23

[[record]]
binder = "ADI-45981 (antibody, V domains shown, also called Ab18) VH: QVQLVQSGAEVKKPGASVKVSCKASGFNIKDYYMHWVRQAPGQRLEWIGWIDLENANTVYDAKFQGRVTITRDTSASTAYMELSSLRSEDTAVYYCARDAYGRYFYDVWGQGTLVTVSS VL: DIVMTQSPDSLAVSLGERATINCKSSQSLLNARTGKNYLAWYQQKPGQPPKLLIYWASMRESGVPDRFSGSRSGTDFTLTISSLQAEDVAVYYCSQSYFRRTFGGGTKVEIK"
value_kind = "Cell Binding hCD3 (FOB)"
observed = 33

[[record]]
binder = "ADI-45962 (antibody, V domains shown, also called Ab25) VH: QVQLVQSGAEVEEPGASVKVSCKASGFNIKDYYMHWVRQAPGQRLEWIGWIDLENANTVYDAKFQGRVTITRDTSASTAYMELSSLRSEDTAVYYCARDAYGRYFYDVWGQGTLVTVSS VL: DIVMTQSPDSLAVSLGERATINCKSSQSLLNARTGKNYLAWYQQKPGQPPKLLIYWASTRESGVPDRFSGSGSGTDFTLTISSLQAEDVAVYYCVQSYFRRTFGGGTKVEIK"
value_kind = "Cell Binding hCD3 (FOB)"
observed = 18

